- TESTED_ON: MAO-B (Homo sapiens, UniProt P27338)
- Sequence (P27338 whole entry): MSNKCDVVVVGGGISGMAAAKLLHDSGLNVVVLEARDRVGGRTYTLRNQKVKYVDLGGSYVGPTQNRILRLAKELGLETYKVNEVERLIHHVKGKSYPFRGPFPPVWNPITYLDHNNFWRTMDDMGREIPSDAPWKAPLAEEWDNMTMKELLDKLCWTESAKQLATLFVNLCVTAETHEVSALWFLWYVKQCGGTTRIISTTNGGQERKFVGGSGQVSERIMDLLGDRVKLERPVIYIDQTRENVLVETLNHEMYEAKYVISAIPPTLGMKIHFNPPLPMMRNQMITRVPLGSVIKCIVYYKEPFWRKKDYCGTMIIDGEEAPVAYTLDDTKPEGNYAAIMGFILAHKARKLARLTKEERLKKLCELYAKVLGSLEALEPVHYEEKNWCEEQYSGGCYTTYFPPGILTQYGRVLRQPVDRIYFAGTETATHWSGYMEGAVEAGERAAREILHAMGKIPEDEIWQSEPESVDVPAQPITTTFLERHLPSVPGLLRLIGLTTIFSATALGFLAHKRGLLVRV
- ASSAY_NOTES: Inhibition of full length recombinant FLAG-tagged human MAO-B expressed in baculovirus infected sf9 cells at 1 uM preincubated for 15 mins followed by luciferin derived substrate addition measured after 60 mins by luciferase reporter gene assay relative to control
- PARTICULARS: probe luciferin derived substrate
EXPERIMENTAL_ENDPOINT: inhibition at 1 h, 1 µM

Request: Item under review: `CCCn1c(SCc2cccc(C)c2)nc2c1c(=O)[nH]c(=O)n2C` . Reported inhibition at 1 h, 1 µM?
Result: 61%

###

- TESTED_ON: UniProtKB P21397
- Sequence (P21397 whole entry): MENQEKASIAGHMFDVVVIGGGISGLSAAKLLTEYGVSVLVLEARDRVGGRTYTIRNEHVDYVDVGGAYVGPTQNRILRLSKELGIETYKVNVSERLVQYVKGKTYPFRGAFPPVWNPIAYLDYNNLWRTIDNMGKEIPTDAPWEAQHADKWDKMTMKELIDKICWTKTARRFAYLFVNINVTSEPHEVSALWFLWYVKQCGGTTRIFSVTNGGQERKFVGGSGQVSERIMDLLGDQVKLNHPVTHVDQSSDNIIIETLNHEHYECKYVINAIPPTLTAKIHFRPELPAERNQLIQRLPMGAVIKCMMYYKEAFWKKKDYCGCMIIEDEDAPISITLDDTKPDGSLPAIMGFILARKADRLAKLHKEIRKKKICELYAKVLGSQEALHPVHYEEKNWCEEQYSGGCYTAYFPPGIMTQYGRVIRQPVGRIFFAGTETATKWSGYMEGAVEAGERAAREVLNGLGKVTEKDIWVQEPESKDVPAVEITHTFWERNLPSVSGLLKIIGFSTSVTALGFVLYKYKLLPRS
- ASSAY_NOTES: Inhibition of full length recombinant FLAG-tagged human MAO-A expressed in baculovirus infected sf9 cells at 1 uM preincubated for 15 mins followed by luciferin derived substrate addition measured after 60 mins by luciferase reporter gene assay relative to control
- PARTICULARS: probe luciferin derived substrate
EXPERIMENTAL_ENDPOINT: inhibition at 1 h, 1 µM (%)
Write the value in % as a bare number.

Request: Please give the measured inhibition at 1 h, 1 µM for this compound: `CCCn1c(SCc2cccc(C)c2)nc2c1c(=O)[nH]c(=O)n2C`
Result: 20

###

IC50 for assorted compounds
- TESTED_ON: Lysine-specific histone demethylase 1A (Homo sapiens, UniProt O60341)
- ASSAY_NOTES: Inhibition of full length recombinant LSD1 (unknown origin) expressed in Escherichia coli BL21(DE3) using H3K4me2 as substrate after 30 mins in presence of FAD by amplex red reagent based fluorescence assay
Numeric answer only, unit µM assumed.

Request: Given the compound `CCCn1c(S)nc2c1c(=O)[nH]c(=O)n2C` , what is its reported IC50?
Result: 6.45

Request: Which value of IC50 has been reported for `CCCn1c(SCc2ccc(F)cc2)nc2c1c(=O)[nH]c(=O)n2C` in the records?
Result: 14.2

Request: Fill in the blank: the reported IC50 of `CCCn1c(SCc2ccc(Cl)cc2)nc2c1c(=O)[nH]c(=O)n2C` is ____.
Result: 25.7

Now for a further compound.
Request: Find the recorded IC50 belonging to `CCCn1c(SCc2cccc(C)c2)nc2c1c(=O)[nH]c(=O)n2C` and report it.
Result: 8.89

###

- TESTED_ON: MAO-B (Homo sapiens, UniProt P27338)
- ASSAY_NOTES: Inhibition of full length recombinant FLAG-tagged human MAO-B expressed in baculovirus infected sf9 cells at 0.1 uM preincubated for 15 mins followed by luciferin derived substrate addition measured after 60 mins by luciferase reporter gene assay relative to control
- PARTICULARS: probe luciferin derived substrate
EXPERIMENTAL_ENDPOINT: inhibition at 1 h, 0.1 µM (%)
Numbers only; they are read as %.

Request: Look at this molecule and give its reported inhibition at 1 h, 0.1 µM. `CCCn1c(SCc2cccc(C)c2)nc2c1c(=O)[nH]c(=O)n2C`
Result: 16

###

- TESTED_ON: Indoleamine 2,3-dioxygenase 1 (Homo sapiens, UniProt P14902)
- Sequence (P14902 whole entry): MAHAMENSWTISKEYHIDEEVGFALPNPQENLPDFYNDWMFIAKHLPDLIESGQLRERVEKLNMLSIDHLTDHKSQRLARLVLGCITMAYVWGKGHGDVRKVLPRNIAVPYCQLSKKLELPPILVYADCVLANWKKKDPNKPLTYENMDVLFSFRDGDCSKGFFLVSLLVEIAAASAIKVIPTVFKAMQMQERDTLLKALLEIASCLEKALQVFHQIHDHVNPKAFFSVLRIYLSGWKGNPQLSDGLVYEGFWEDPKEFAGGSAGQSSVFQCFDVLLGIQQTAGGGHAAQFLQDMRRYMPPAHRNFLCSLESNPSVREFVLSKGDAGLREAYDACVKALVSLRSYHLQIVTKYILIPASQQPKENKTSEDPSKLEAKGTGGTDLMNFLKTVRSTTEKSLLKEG
EXPERIMENTAL_ENDPOINT: IC50 (µM)
Entry rule: numbers only, all in µM.

Request: # value lookup — system Indoleamine 2,3-dioxygenase 1 (Homo sapiens, UniProt P14902), readout IC50, item `CCCn1c(SCc2cccc(C)c2)nc2c1c(=O)[nH]c(=O)n2C`
Result: 96.9
